# Tested on: NCI-H226 lung
# assay.info: NCI-60 one-dose screen, 48 h (100 = growth as untreated, 0 = no growth, -100 = all killed)
# recorded.conditions: 10 µM unless noted
This is part of a sample that, as a whole, favours compounds with a hit. Of some 83,000 tested, about 20% had one in any assay. The source made the active and inactive calls. Rule for the calls: active = growth percent below 10; inactive = the rest.
I'd be grateful if you could share measured growth for these entries.

[[record]]
compound = "Cc1cn(-c2cc(C(=O)Nc3cccc(-n4ccc5c(NC(=O)c6ccccc6)nccc54)c3)cc(C(F)(F)F)c2)cn1"
reported_value = "33.8% (inactive)"

[[record]]
compound = "CCCOC(=O)c1ccc([N+](=O)[O-])o1"
reported_value = "109% (inactive)"

[[record]]
compound = "Cc1cccc[n+]1CCC[n+]1ccccc1C"
reported_value = "98.4% (inactive)"


Batch: growth for all items listed.
1. Nc1ncnc2c1c(-c1ccc(Oc3ccccc3)cc1)nn2C[C@H]1SSC[C@@H]1O
2. COc1cc2c(cc1OC)-c1c(oc3c4c(ccc3c1=O)OC(C)(C)C=C4)CO2
3. C=C1C(=O)O[C@H]2[C@H]1CC/C(COC(=O)CCCC(=O)OC/C1=C/CC[C@@]3(C)O[C@H]3[C@H]3OC(=O)C(=C)[C@@H]3CC1)=C\CC[C@@]1(C)O[C@@H]21
4. COc1ccc(Cl)cc1NC(=O)c1cc2c(n1C)-c1nc(NC(=O)C(C)(C)C)sc1CC2
5. CCOC(=O)C1CN(Cc2ccccc2)C(=O)C1=O (stereo not drawn)
6. CCN(CC)C(=O)C1CCN(C(=O)c2ccccc2)CC1
7. Nc1nc(-c2cc3c(cc2Cl)NC(=O)/C3=C/c2ccccc2)cs1
8. CC(=O)n1cc(/C=C2\N=C(c3ccc(Cl)cc3)N(c3ccc(S(=O)(=O)Nc4nccs4)cc3)C2=O)c2ccccc21

1: 22.9% (inactive); 2: 89.3% (inactive); 3: -44.4% (active); 4: 89.6% (inactive); 5: 93.3% (inactive); 6: 94.1% (inactive); 7: 71.8% (inactive); 8: 94.7% (inactive)

Lab note: each compound below needs its growth filled in.
1. CC[C@H]1[C@@H]2C=C[C@@H]3[C@H]4C/C=C\C(=O)NCCC[C@@H]5NC(=O)/C(=C(O)/C=C/[C@@H]4C[C@@H]3[C@H]2C[C@H]1C)C5=O
2. CN[C@@H](CCCNC(N)=NC/C=C(/C)CCC=C(C)C)C(=O)N(C)[C@@H](CCCNC(N)=NCC=C(C)C)C(=O)N[C@H](C)[C@H](OS(=O)(=O)O)c1ccc(OS(=O)(=O)O)c(COS(=O)(=O)O)c1

["1.14% (active)", "89.1% (inactive)"]

Each compound below has a reported value. Please supply its growth.
1. O=C(NC(=S)Nc1ccc(Cl)cc1)c1ccccc1
2. COc1cc(NC(=O)c2cc(OC)c3ccn(C)c3c2)cc2c1C[C@]1(C)CC[C@@H](O)C(C)(C)[C@H]1O2
3. O=C1COc2ccccc2C(=O)N1CCCCN1CCCCC1
4. Cc1nccc2c3ccc(OCc4cn(-c5ccc(Br)cc5)nn4)cc3n(CCCc3ccccc3)c12
5. [2H]c1nc(Nc2ncc(F)c(-c3cc(F)c4nc(C)n(C(C)C)c4c3)n2)c([2H])c([2H])c1CN1CCN(CC)CC1

108% (inactive)
106% (inactive)
93% (inactive)
91% (inactive)
41.5% (inactive)

Give one value of growth per listed compound.
1. O=C(Nc1ccc(-n2ccc3c(NC(=O)c4ccccc4)ncnc32)cc1)c1ccc(Cl)c(C(F)(F)F)c1
2. COc1ccc(Cl)cc1NC(=O)c1cc2c(n1C)-c1nc(NC(=O)C(C)C)sc1CC2
3. CCN(CC)CCNc1ccc([N+](=O)[O-])c2sc3cc(Cl)ccc3c(=O)c12
4. CC1OC(n2c3ccccc3c3c4c(c5c6ccccc6[nH]c5c32)C(=O)N(CCN[C@@H]2CCC[C@H]2N)C4=O)CC(O)C1O (stereo partly drawn)
5. COC(OC)C1(c2ccccc2)NC(=O)NC1=O (stereo not drawn)
6. O=C(O)c1cccc(S(=O)(=O)c2ccccc2)c1
7. O=C1OC(c2ccc(-c3ccccc3)cc2)=C/C1=C/C=C/c1ccccc1

32.3% (inactive)
61.3% (inactive)
84.9% (inactive)
17.4% (inactive)
113% (inactive)
96.8% (inactive)
82.3% (inactive)
